Reported AUC25 values for the following compounds.
# System: Mycobacterium tuberculosis Erdman (autoluminescent)
# Protocol summary: AUC25, normalised area under dose response up to IC25 (three-drug combination) (fraction (0-1)); higher = more potent at low dose
# Condition description: in vitro model: dormancy (butyrate + nitrate, low O2); time point: terminal (~4-5 doublings, model-specific)
Parameter: AUC25

Compound	Result
COc1nc2ccc(Br)cc2cc1[C@@H](c1ccccc1)[C@@](O)(CCN(C)C)c1cccc2ccccc12 [bedaquiline] + CC(=O)NC[C@H]1CN(c2ccc(N3CCOCC3)c(F)c2)C(=O)O1 [linezolid] + CO[C@H]1/C=C/O[C@@]2(C)Oc3c(C)c(O)c4c(O)c(c(/C=N/N5CCN(C6CCCC6)CC5)c(O)c4c3C2=O)NC(=O)/C(C)=C\C=C\[C@H](C)[C@H](O)[C@@H](C)[C@@H](O)[C@@H](C)[C@H](OC(C)=O)[C@@H]1C [rifapentine]	0.0384
CC(C)/N=c1\cc2n(-c3ccc(Cl)cc3)c3ccccc3nc-2cc1Nc1ccc(Cl)cc1 [clofazimine] + COc1c(N2C[C@@H]3CCCN[C@@H]3C2)c(F)cc2c(=O)c(C(=O)O)cn(C3CC3)c12 [moxifloxacin] + CO[C@H]1/C=C/O[C@@]2(C)Oc3c(C)c(O)c4c(O)c(c(/C=N/N5CCN(C6CCCC6)CC5)c(O)c4c3C2=O)NC(=O)/C(C)=C\C=C\[C@H](C)[C@H](O)[C@@H](C)[C@@H](O)[C@@H](C)[C@H](OC(C)=O)[C@@H]1C [rifapentine]	0.0815
CC(=O)NC[C@H]1CN(c2ccc(N3CCOCC3)c(F)c2)C(=O)O1 [linezolid] + COc1c(N2C[C@@H]3CCCN[C@@H]3C2)c(F)cc2c(=O)c(C(=O)O)cn(C3CC3)c12 [moxifloxacin] + NC(=O)c1cnccn1 [pyrazinamide]	0.0321
COc1nc2ccc(Br)cc2cc1[C@@H](c1ccccc1)[C@@](O)(CCN(C)C)c1cccc2ccccc12 [bedaquiline] + NNC(=O)c1ccncc1 [isoniazid] + COc1c(N2C[C@@H]3CCCN[C@@H]3C2)c(F)cc2c(=O)c(C(=O)O)cn(C3CC3)c12 [moxifloxacin]	0.0705
CC[C@@H](CO)NCCN[C@@H](CC)CO [ethambutol] + COc1c(N2C[C@@H]3CCCN[C@@H]3C2)c(F)cc2c(=O)c(C(=O)O)cn(C3CC3)c12 [moxifloxacin] + O=[N+]([O-])c1cn2c(n1)OC[C@@H](OCc1ccc(OC(F)(F)F)cc1)C2 [pretomanid]	0.126
COc1nc2ccc(Br)cc2cc1[C@@H](c1ccccc1)[C@@](O)(CCN(C)C)c1cccc2ccccc12 [bedaquiline] + CC[C@@H](CO)NCCN[C@@H](CC)CO [ethambutol] + CC(=O)NC[C@H]1CN(c2ccc(N3CCOCC3)c(F)c2)C(=O)O1 [linezolid]	0.127
CC[C@@H](CO)NCCN[C@@H](CC)CO [ethambutol] + NNC(=O)c1ccncc1 [isoniazid] + NC(=O)c1cnccn1 [pyrazinamide]	0.104
COc1nc2ccc(Br)cc2cc1[C@@H](c1ccccc1)[C@@](O)(CCN(C)C)c1cccc2ccccc12 [bedaquiline] + CC(C)/N=c1\cc2n(-c3ccc(Cl)cc3)c3ccccc3nc-2cc1Nc1ccc(Cl)cc1 [clofazimine] + CO[C@H]1/C=C/O[C@@]2(C)Oc3c(C)c(O)c4c(O)c(c(/C=N/N5CCN(C)CC5)c(O)c4c3C2=O)NC(=O)/C(C)=C\C=C\[C@H](C)[C@H](O)[C@@H](C)[C@@H](O)[C@@H](C)[C@H](OC(C)=O)[C@@H]1C [rifampicin]	0.0651
COc1c(N2C[C@@H]3CCCN[C@@H]3C2)c(F)cc2c(=O)c(C(=O)O)cn(C3CC3)c12 [moxifloxacin] + O=[N+]([O-])c1cn2c(n1)OC[C@@H](OCc1ccc(OC(F)(F)F)cc1)C2 [pretomanid] + CO[C@H]1/C=C/O[C@@]2(C)Oc3c(C)c(O)c4c(O)c(c(/C=N/N5CCN(C)CC5)c(O)c4c3C2=O)NC(=O)/C(C)=C\C=C\[C@H](C)[C@H](O)[C@@H](C)[C@@H](O)[C@@H](C)[C@H](OC(C)=O)[C@@H]1C [rifampicin]	0.0531
NNC(=O)c1ccncc1 [isoniazid] + COc1c(N2C[C@@H]3CCCN[C@@H]3C2)c(F)cc2c(=O)c(C(=O)O)cn(C3CC3)c12 [moxifloxacin] + NC(=O)c1cnccn1 [pyrazinamide]	0.0689
COc1nc2ccc(Br)cc2cc1[C@@H](c1ccccc1)[C@@](O)(CCN(C)C)c1cccc2ccccc12 [bedaquiline] + CC[C@@H](CO)NCCN[C@@H](CC)CO [ethambutol] + COc1c(N2C[C@@H]3CCCN[C@@H]3C2)c(F)cc2c(=O)c(C(=O)O)cn(C3CC3)c12 [moxifloxacin]	0.114
CC(=O)NC[C@H]1CN(c2ccc(N3CCOCC3)c(F)c2)C(=O)O1 [linezolid] + COc1c(N2C[C@@H]3CCCN[C@@H]3C2)c(F)cc2c(=O)c(C(=O)O)cn(C3CC3)c12 [moxifloxacin] + CO[C@H]1/C=C/O[C@@]2(C)Oc3c(C)c(O)c4c(O)c(c(/C=N/N5CCN(C6CCCC6)CC5)c(O)c4c3C2=O)NC(=O)/C(C)=C\C=C\[C@H](C)[C@H](O)[C@@H](C)[C@@H](O)[C@@H](C)[C@H](OC(C)=O)[C@@H]1C [rifapentine]	0.0346
COc1nc2ccc(Br)cc2cc1[C@@H](c1ccccc1)[C@@](O)(CCN(C)C)c1cccc2ccccc12 [bedaquiline] + CC(C)/N=c1\cc2n(-c3ccc(Cl)cc3)c3ccccc3nc-2cc1Nc1ccc(Cl)cc1 [clofazimine] + O=[N+]([O-])c1cn2c(n1)OC[C@@H](OCc1ccc(OC(F)(F)F)cc1)C2 [pretomanid]	0.077
CC[C@@H](CO)NCCN[C@@H](CC)CO [ethambutol] + O=[N+]([O-])c1cn2c(n1)OC[C@@H](OCc1ccc(OC(F)(F)F)cc1)C2 [pretomanid] + NC(=O)c1cnccn1 [pyrazinamide]	0.11

###

# Test system: Mycobacterium tuberculosis Erdman (autoluminescent)
# Protocol summary: Einf, fitted maximum growth inhibition of three-drug combination (fraction); higher = stronger maximal inhibition
# Condition description: in vitro model: valerate; time point: constant (~7 days, model-specific)

Compound	Einf
COc1nc2ccc(Br)cc2cc1[C@@H](c1ccccc1)[C@@](O)(CCN(C)C)c1cccc2ccccc12 [bedaquiline] + NNC(=O)c1ccncc1 [isoniazid] + COc1c(N2C[C@@H]3CCCN[C@@H]3C2)c(F)cc2c(=O)c(C(=O)O)cn(C3CC3)c12 [moxifloxacin]	0.925
CC(=O)NC[C@H]1CN(c2ccc(N3CCOCC3)c(F)c2)C(=O)O1 [linezolid] + NC(=O)c1cnccn1 [pyrazinamide] + CO[C@H]1/C=C/O[C@@]2(C)Oc3c(C)c(O)c4c(O)c(c(/C=N/N5CCN(C6CCCC6)CC5)c(O)c4c3C2=O)NC(=O)/C(C)=C\C=C\[C@H](C)[C@H](O)[C@@H](C)[C@@H](O)[C@@H](C)[C@H](OC(C)=O)[C@@H]1C [rifapentine]	0.865
COc1nc2ccc(Br)cc2cc1[C@@H](c1ccccc1)[C@@](O)(CCN(C)C)c1cccc2ccccc12 [bedaquiline] + O=[N+]([O-])c1cn2c(n1)OC[C@@H](OCc1ccc(OC(F)(F)F)cc1)C2 [pretomanid] + NC(=O)c1cnccn1 [pyrazinamide]	0.866
NNC(=O)c1ccncc1 [isoniazid] + CC(=O)NC[C@H]1CN(c2ccc(N3CCOCC3)c(F)c2)C(=O)O1 [linezolid] + CO[C@H]1/C=C/O[C@@]2(C)Oc3c(C)c(O)c4c(O)c(c(/C=N/N5CCN(C)CC5)c(O)c4c3C2=O)NC(=O)/C(C)=C\C=C\[C@H](C)[C@H](O)[C@@H](C)[C@@H](O)[C@@H](C)[C@H](OC(C)=O)[C@@H]1C [rifampicin]	0.862
COc1nc2ccc(Br)cc2cc1[C@@H](c1ccccc1)[C@@](O)(CCN(C)C)c1cccc2ccccc12 [bedaquiline] + NNC(=O)c1ccncc1 [isoniazid] + CO[C@H]1/C=C/O[C@@]2(C)Oc3c(C)c(O)c4c(O)c(c(/C=N/N5CCN(C6CCCC6)CC5)c(O)c4c3C2=O)NC(=O)/C(C)=C\C=C\[C@H](C)[C@H](O)[C@@H](C)[C@@H](O)[C@@H](C)[C@H](OC(C)=O)[C@@H]1C [rifapentine]	0.906
CC(=O)NC[C@H]1CN(c2ccc(N3CCOCC3)c(F)c2)C(=O)O1 [linezolid] + COc1c(N2C[C@@H]3CCCN[C@@H]3C2)c(F)cc2c(=O)c(C(=O)O)cn(C3CC3)c12 [moxifloxacin] + NC(=O)c1cnccn1 [pyrazinamide]	0.87

###

# Tested on: Mycobacterium tuberculosis Erdman (autoluminescent)
# Protocol summary: total FIC50 (Loewe) at 50% inhibition, three-drug combination (log2); higher = more antagonistic
# Condition description: in vitro model: acidic pH 5.7; time point: terminal (~4-5 doublings, model-specific)
Reported total FIC50 values for the following compounds.

Compound	total FIC50
CC(C)/N=c1\cc2n(-c3ccc(Cl)cc3)c3ccccc3nc-2cc1Nc1ccc(Cl)cc1 [clofazimine] + COc1c(N2C[C@@H]3CCCN[C@@H]3C2)c(F)cc2c(=O)c(C(=O)O)cn(C3CC3)c12 [moxifloxacin] + O=[N+]([O-])c1cn2c(n1)OC[C@@H](OCc1ccc(OC(F)(F)F)cc1)C2 [pretomanid]	0.34
COc1nc2ccc(Br)cc2cc1[C@@H](c1ccccc1)[C@@](O)(CCN(C)C)c1cccc2ccccc12 [bedaquiline] + CC(=O)NC[C@H]1CN(c2ccc(N3CCOCC3)c(F)c2)C(=O)O1 [linezolid] + O=[N+]([O-])c1cn2c(n1)OC[C@@H](OCc1ccc(OC(F)(F)F)cc1)C2 [pretomanid]	0.58
NNC(=O)c1ccncc1 [isoniazid] + CC(=O)NC[C@H]1CN(c2ccc(N3CCOCC3)c(F)c2)C(=O)O1 [linezolid] + CO[C@H]1/C=C/O[C@@]2(C)Oc3c(C)c(O)c4c(O)c(c(/C=N/N5CCN(C)CC5)c(O)c4c3C2=O)NC(=O)/C(C)=C\C=C\[C@H](C)[C@H](O)[C@@H](C)[C@@H](O)[C@@H](C)[C@H](OC(C)=O)[C@@H]1C [rifampicin]	0.505
